Test readout: melting point

Worked cases, melting point given:
Compound	Test readout	Result
CN(C)CCOc1ccc2c(c1)CCC(CN1CCCC1)C2.Cl (racemic)	melting point	131.6 to 132.8 °C
Cl.Cl.c1cc2c(cc1OCCN1CCCCC1)CCC(CN1CCCC1)C2 (single isomer, unassigned; (-)) [92 (−)]	melting point	265.5 to 266.8 °C
Cl.c1cc2c(cc1OCCCN1CCOCC1)CCC(CN1CCCC1)C2 (stereo not drawn) [14]	melting point	249.6 to 250.4 °C
CN(C)CCCOc1ccc2c(c1)CCC(CN1CCCC1)C2.Cl (racemic) [1]	melting point	187.7 to 188.7 °C
NC(=O)C1CCCN(CCCOc2ccc3c(c2)CCC(CN2CCCC2)C3)C1 (racemic) [Example 9]	melting point	102 to 103.2 °C

Please examine the following record next.
Input line: For the compound shown here, CC1(C)CCCN(CCCOc2ccc3c(c2)CCC(CN2CCCC2)C3)C1.Cl (single isomer, unassigned; (-)) [15 (−)] , give the reported melting point.
Output line: 202 to 204 °C

====

The following compounds are listed with their measured melting point values.

Solved entries:
Compound	Result
Cl.c1cc2c(cc1OCCCN1CCOCC1)CCC(CN1CCCC1)C2 (racemic) [4]	259.9 to 261.4 °C
Cl.c1cc2c(cc1OCCCN1CCCCC1)CCC(CN1CCCC1)C2 (stereo not shown) [12]	256.6 to 258.4 °C
Cl.c1cc2c(cc1OCCCN1CCOCC1)CCC(CN1CCCC1)C2 (stereo not shown) [5]	255.4 to 256.4 °C
Cl.c1cc2c(cc1OCCCN1CCCC1)CCC(CN1CCCC1)C2 (racemic) [6 (±)]	149.4 to 150.5 °C
Cl.c1cc2c(cc1OCCCN1CCOCC1)CCC(CN1CCCC1)C2 (stereo not shown) [11]	281.8 to 282.7 °C

Input line: For the compound shown here, Cl.c1cc2c(cc1OCCCNC1CCC3(CCCCC3)CC1)CCC(CN1CCCC1)C2 (single isomer, unassigned; (-)) [16 (−)] , give the reported melting point.
Output line: 291.5 to 292.9 °C

Input line: Try the compound Cl.c1cc2c(cc1OCCCN1CCC(N3CCCCC3)CC1)CCC(CN1CCCC1)C2 (racemic) [7 (±)]
Output line: 284.8 °C (dec.)

Input line: # repeat for Cl.c1cc2c(cc1OCCCN1CCC3(CCCCC3)CC1)CCC(CN1CCCC1)C2 (stereo not shown)
Output line: 287.6 to 290.2 °C

Input line: Another compound to look at: Cl.c1cc2c(cc1OCCCN1CCCCC1)CCC(CN1CCCC1)C2 (single isomer, unassigned; (-)) [10 (−)]
Output line: 286.6 to 286.8 °C

Input line: Also need c1cc2c(cc1OCCCN1CCCCC1)CCC(CN1CCCC1)C2 (racemic) [3 (±)] , thanks.
Output line: 180 to 181.4 °C

====

Let's look at some molecules and their measured melting point.

For orientation, consider the following solved cases.
Molecule	melting point
Cl.c1cc2c(cc1OCCCNC1CC3CCC1C3)CCC(CN1CCCC1)C2 (stereo not drawn)	265.4 to 266.3 °C
CN(C)CCCOc1ccc2c(c1)CCC(CN1CCCC1)C2.Cl (stereo not drawn) [13]	230.6 to 232.8 °C

Now for a further molecule.
Input line: Look at this molecule and give its reported melting point. Cl.NC(=O)C1CCN(CCCOc2ccc3c(c2)CCC(CN2CCCC2)C3)CC1 (racemic)
Output line: 211 to 213 °C
